- Protocol: Fujifilm Wako Pure Chemical The poorly soluble compound content in the recovered filtrate was measured by liquid chromatography specified below (Shimadzu (Kyoto), high performance liquid chromatograph Prominence). As the standard product of triamcinolone acetonide, a reagent from the Pharmaceutical and Medical Device Regulatory Science Society of Japan (Japan) was used. • 50 μL of sample solution and standard solution was measured by liquid chromatography under the following conditions. […]
recorded metric: Solubility scale factor at 15° C. 30% PEG 4000/10% poloxamer 407

chemical structure	reported
C[C@@H]1C[C@H]2[C@@H]3CCC4=CC(=O)C=C[C@]4(C)[C@@]3(F)[C@@H](O)C[C@]2(C)[C@@]1(O)C(=O)CO	7.10
COC1=CC(=O)C[C@@H](C)[C@]12Oc1c(Cl)c(OC)cc(OC)c1C2=O	14.31
COC(=O)Nc1nc2cc(C(=O)c3ccc(F)cc3)ccc2[nH]1	12.41
CCCc1nc2c(C)cc(-c3nc4ccccc4n3C)cc2n1Cc1ccc(-c2ccccc2C(=O)O)cc1	1.71

###

- procedure text: Basic solubility at 25° C. in ethanol, PEG 400, propylene glycol (PG) and buffer solution; solubility ratio non-aqueous solvent / buffer solution
- test parameters: 25° C.

compound	Solubility, Ethanol (%)
Cc1ccc(-c2cc(C(F)(F)F)nn2-c2ccc(S(N)(=O)=O)cc2)cc1 [Celecoxib]	10.24
CC1(C)O[C@@H]2C[C@H]3[C@@H]4C[C@H](F)C5=CC(=O)C=C[C@]5(C)[C@@]4(F)[C@@H](O)C[C@]3(C)[C@]2(C(=O)CO)O1 [Fluocinolone acetonide]	4.635
O=C(NC(Cc1cc(=O)[nH]c2ccccc12)C(=O)O)c1ccc(Cl)cc1 (stereo not shown) [Rebamipide]	0.06615
COC1=CC(=O)C[C@@H](C)[C@]12Oc1c(Cl)c(OC)cc(OC)c1C2=O [Griseofulvin]	0.2423

###

- procedure text: Basic solubility at 25° C. in ethanol, PEG 400, propylene glycol (PG) and buffer solution; solubility ratio non-aqueous solvent / buffer solution
- test parameters: 25° C.
// reported Solubility, PEG400 per item
recorded metric: Solubility, PEG400 (%)

molecule	recorded metric	reported
C=C(C)[C@H]1Cc2c(ccc3c2O[C@@H]2COc4cc(OC)c(OC)cc4[C@@H]2C3=O)O1	Solubility, PEG400	3.314
O=C1CCc2cc(OCCCCc3nnnn3C3CCCCC3)ccc2N1	Solubility, PEG400	0.4342
CC1(C)O[C@@H]2C[C@H]3[C@@H]4CCC5=CC(=O)C=C[C@]5(C)[C@H]4[C@@H](O)C[C@]3(C)[C@]2(C(=O)CO)O1 [Desonide]	Solubility, PEG400	1.031
COC1=CC(=O)C[C@@H](C)[C@]12Oc1c(Cl)c(OC)cc(OC)c1C2=O	Solubility, PEG400	1.367

###

- procedure text: Basic solubility at 25° C. in ethanol, PEG 400, propylene glycol (PG) and buffer solution; solubility ratio non-aqueous solvent / buffer solution
- test parameters: 25° C.; buffer pH 7.0 (pH 7.4 for cabozantinib and telmisartan; pH 6.0 for rebamipide)
Decision: Solubility ratio of solvent with respect to buffer solution PEG400/buffer solution >= 6000 yields condition met, all other cases yield condition not met.

compound	class assignment
C[C@@H](O[C@H]1OCCN(Cc2n[nH]c(=O)[nH]2)[C@H]1c1ccc(F)cc1)c1cc(C(F)(F)F)cc(C(F)(F)F)c1 [Aprepitant]	condition met
CC1(C)O[C@@H]2C[C@H]3[C@@H]4CCC5=CC(=O)C=C[C@]5(C)[C@H]4[C@@H](O)C[C@]3(C)[C@]2(C(=O)CO)O1 [Desonide]	condition not met
CCCc1nc2c(C)cc(-c3nc4ccccc4n3C)cc2n1Cc1ccc(-c2ccccc2C(=O)O)cc1	condition not met
O=C(NC(Cc1cc(=O)[nH]c2ccccc12)C(=O)O)c1ccc(Cl)cc1 (stereo not shown) [Rebamipide]	condition not met
CC1(C)O[C@@H]2C[C@H]3[C@@H]4C[C@H](F)C5=CC(=O)C=C[C@]5(C)[C@@]4(F)[C@@H](O)C[C@]3(C)[C@]2(C(=O)CO)O1 [Fluocinolone acetonide]	condition not met
CNC(=O)c1cc(Oc2ccc(NC(=O)Nc3ccc(Cl)c(C(F)(F)F)c3)cc2)ccn1	condition met
C=C(C)[C@H]1Cc2c(ccc3c2O[C@@H]2COc4cc(OC)c(OC)cc4[C@@H]2C3=O)O1	condition met
O=C1Nc2ccc(Cl)cc2[C@@](C#CC2CC2)(C(F)(F)F)O1	condition met
Cc1ccc(-c2cc(C(F)(F)F)nn2-c2ccc(S(N)(=O)=O)cc2)cc1	condition met
COC1=CC(=O)C[C@@H](C)[C@]12Oc1c(Cl)c(OC)cc(OC)c1C2=O	condition not met
COc1cc2nccc(Oc3ccc(NC(=O)C4(C(=O)Nc5ccc(F)cc5)CC4)cc3)c2cc1OC [Cabozantinib]	condition met
O=C1CCc2cc(OCCCCc3nnnn3C3CCCCC3)ccc2N1	condition not met
Brc1cccc2c1oc1ccccc12	condition met
CNC(=O)c1cc(Oc2ccc(NC(=O)Nc3ccc(Cl)c(C(F)(F)F)c3)c(F)c2)ccn1	condition met
CC1(C)O[C@@H]2C[C@H]3[C@@H]4CCC5=CC(=O)C=C[C@]5(C)[C@@]4(F)[C@@H](O)C[C@]3(C)[C@]2(C(=O)CO)O1 [Triamsinolone acetonide]	condition not met
